- Measurement target: KRAS G13D (Homo sapiens (Human), UniProt P01116+P62937, G13D)
- Sequence (P01116-2 other isoform, or with tags, fused parts or gaps G13D): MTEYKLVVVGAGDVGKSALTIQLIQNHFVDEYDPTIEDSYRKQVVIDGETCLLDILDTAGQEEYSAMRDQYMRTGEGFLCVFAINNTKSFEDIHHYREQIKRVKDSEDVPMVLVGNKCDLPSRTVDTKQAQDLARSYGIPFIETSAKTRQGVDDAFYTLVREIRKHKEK
- Sequence (P62937 whole entry): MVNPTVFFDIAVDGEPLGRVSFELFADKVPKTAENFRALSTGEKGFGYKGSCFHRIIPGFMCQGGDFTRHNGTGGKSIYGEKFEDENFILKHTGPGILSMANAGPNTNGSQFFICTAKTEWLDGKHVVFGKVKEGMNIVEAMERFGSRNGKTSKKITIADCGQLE
- Procedure details: Ras-Raf (BRAF RBD) disruption / FRET / MOA assay, KRAS G13D
- Assay type: biochemical
- Run conditions: read-out: IC50* KRAS G13D FRET data
pIC50: −log10 of the molar value.
Metric: pIC50

As a guide, the following entries are already answered.
[[record]]
compound = "C=CC(=O)N1C[C@H](C(=O)N(C)[C@H](C(=O)N[C@H]2Cc3cccc(c3)-c3ccc4c(c3)c(c(-c3cccnc3[C@H](C)OC)n4CC)CC(C)(C)COC(=O)[C@@H]3CCCN(N3)C2=O)C(C)C)[C@H](C(F)(F)F)C1 (atropisomer, axis not shown)"
test_value = "< 5.00"

[[record]]
compound = "C=CC(=O)N(C)C[C@@H]1CCN(C(=O)N(C)[C@H](C(=O)N[C@H]2Cc3nc(cs3)-c3ccc4c(c3)c(c(-c3cccnc3[C@H](C)OC)n4CC)CC(C)(C)COC(=O)[C@@H]3CCCN(N3)C2=O)C(C)C)C1 (atropisomer, axis not shown)"
test_value = "6.00 to 7.00"


*Q* Endpoint output: pIC50 of C=CC(=O)N1CC(OCC(C(=O)N[C@H]2Cc3cccc(c3)-c3ccc4c(c3)c(c(-c3cccnc3[C@H](C)OC)n4CC(F)(F)F)CC(C)(C)COC(=O)[C@@H]3CCCN(N3)C2=O)C(C)C)C1 (mixture of isomers) . Value?
*A* < 5.00

*Q* Endpoint output: pIC50 of C=CC(=O)N(C)C[C@H]1CCN(C(=O)N(C)[C@H](C(=O)N[C@H]2Cc3nc(cs3)-c3ccc4c(c3)c(c(-c3cccnc3[C@H](C)OC)n4CC)CC(C)(C)COC(=O)[C@@H]3CCCN(N3)C2=O)C(C)C)C1 (atropisomer, axis not shown) . Value?
*A* 6.00 to 7.00

*Q* Endpoint output: pIC50 of CO[C@@H](C)c1ncccc1-c1c2c3cc(ccc3n1CC(F)(F)F)-c1nc(nn1C)C[C@H](NC(=O)[C@H](C(C)C)N(C)C(=O)C1(F)CCN(C(=O)C#CC(C)(C)N(C)C)CC1)C(=O)N1CCC[C@H](N1)C(=O)OCC(C)(C)C2 (atropisomer, axis not shown) . Value?
*A* 6.00 to 7.00

*Q* Endpoint output: pIC50 of C=CC(=O)N1CC[C@@]2(C1)OCN([C@H](C(=O)N[C@H]1Cc3cccc(c3)-c3ccc4c(c3)c(c(-c3cccnc3[C@H](C)OC)n4CC)CC(C)(C)COC(=O)[C@@H]3CCCN(N3)C1=O)C(C)C)C2=O (atropisomer, axis not shown) . Value?
*A* 5.00 to 6.00

*Q* Endpoint output: pIC50 of CCn1c(-c2cccnc2[C@H](C)OC)c2c3cc(ccc31)-c1cc(CF)cc(c1)C[C@H](NC(=O)[C@H](C(C)C)N(C)C(=O)[C@H]1CCN(C(=O)C#CC(C)(C)N(C)C)C1)C(=O)N1CCC[C@H](N1)C(=O)OCC(C)(C)C2 (atropisomer, axis not shown) . Value?
*A* 5.00 to 6.00

*Q* Endpoint output: pIC50 of C=CC(=O)Nc1cnc(C(=O)N(C)[C@H](C(=O)N[C@H]2Cc3cccc(c3)-c3ccc4c(c3)c(c(-c3cccnc3[C@H](C)OC)n4CC)CC(C)(C)COC(=O)[C@@H]3CCCN(N3)C2=O)C(C)C)n1C (atropisomer, axis not shown) [Example A524] . Value?
*A* < 5.00

*Q* Endpoint output: pIC50 of C=CC(=O)N1CC(OC(=O)N(C)[C@H](C(=O)N[C@H]2Cc3cccc(c3)-c3ccc4c(c3)c(c(-c3cccnc3[C@H](C)OC)n4CC)CC(C)(C)COC(=O)[C@@H]3CCCN(N3)C2=O)C(C)C)C1 (atropisomer, axis not shown) . Value?
*A* 5.00 to 6.00

*Q* Endpoint output: pIC50 of C=CC(=O)N1CC2(CCN2C(=O)N(C)[C@H](C(=O)N[C@H]2Cc3cccc(n3)-c3ccc4c(c3)c(c(-c3cccnc3[C@H](C)OC)n4CC)CC(C)(C)COC(=O)[C@@H]3CCCN(N3)C2=O)C(C)C)C1 (atropisomer, axis not shown) . Value?
*A* 5.00 to 6.00

*Q* Endpoint output: pIC50 of C=CC(=O)N(C)[C@@H]1C[C@H]1N(C)C(=O)N(C)[C@H](C(=O)N[C@H]1Cc2nc(cs2)-c2ccc3c(c2)c(c(-c2cccnc2[C@H](C)OC)n3CC)CC(C)(C)COC(=O)[C@@H]2CCCN(N2)C1=O)C(C)C (atropisomer, axis not shown) . Value?
*A* 5.00 to 6.00

*Q* Endpoint output: pIC50 of CCn1c(-c2cccnc2[C@H](C)OC)c2c3cc(ccc31)-c1cc(O)cc(c1)C[C@H](NC(=O)[C@H](C(C)C)N(C)C(=O)[C@H]1CCN(C(=O)C#CCN3[C@@H](C)COC[C@@H]3C)C1)C(=O)N1CCC[C@H](N1)C(=O)OCC(C)(C)C2 (atropisomer, axis not shown) . Value?
*A* 6.00 to 7.00

*Q* Endpoint output: pIC50 of C=CC(=O)N1CCC(F)(C(=O)N(C)[C@H](C(=O)N[C@H]2C[C@H]3CN(CCO3)c3ccc4c(c3)c(c(-c3cccnc3[C@H](C)OC)n4CC)CC(C)(C)COC(=O)[C@@H]3CCCN(N3)C2=O)C(C)C)CC1 (atropisomer, axis not shown) . Value?
*A* 5.00 to 6.00

*Q* Endpoint output: pIC50 of C=CC(=O)N1CCO[C@H]2CN(C(=O)N(C)[C@H](C(=O)N[C@H]3Cc4cccc(n4)-c4ccc5c(c4)c(c(-c4cccnc4[C@H](C)OC)n5CC(F)(F)F)CC(C)(C)COC(=O)[C@@H]4CCCN(N4)C3=O)C(C)C)C[C@H]21 (atropisomer, axis not shown) . Value?
*A* 5.00 to 6.00
